// data source = ChEMBL document CHEMBL3886170

# tgt: High affinity nerve growth factor receptor (Homo sapiens)
# Sequence (P04629 whole entry, the tested form may be a part): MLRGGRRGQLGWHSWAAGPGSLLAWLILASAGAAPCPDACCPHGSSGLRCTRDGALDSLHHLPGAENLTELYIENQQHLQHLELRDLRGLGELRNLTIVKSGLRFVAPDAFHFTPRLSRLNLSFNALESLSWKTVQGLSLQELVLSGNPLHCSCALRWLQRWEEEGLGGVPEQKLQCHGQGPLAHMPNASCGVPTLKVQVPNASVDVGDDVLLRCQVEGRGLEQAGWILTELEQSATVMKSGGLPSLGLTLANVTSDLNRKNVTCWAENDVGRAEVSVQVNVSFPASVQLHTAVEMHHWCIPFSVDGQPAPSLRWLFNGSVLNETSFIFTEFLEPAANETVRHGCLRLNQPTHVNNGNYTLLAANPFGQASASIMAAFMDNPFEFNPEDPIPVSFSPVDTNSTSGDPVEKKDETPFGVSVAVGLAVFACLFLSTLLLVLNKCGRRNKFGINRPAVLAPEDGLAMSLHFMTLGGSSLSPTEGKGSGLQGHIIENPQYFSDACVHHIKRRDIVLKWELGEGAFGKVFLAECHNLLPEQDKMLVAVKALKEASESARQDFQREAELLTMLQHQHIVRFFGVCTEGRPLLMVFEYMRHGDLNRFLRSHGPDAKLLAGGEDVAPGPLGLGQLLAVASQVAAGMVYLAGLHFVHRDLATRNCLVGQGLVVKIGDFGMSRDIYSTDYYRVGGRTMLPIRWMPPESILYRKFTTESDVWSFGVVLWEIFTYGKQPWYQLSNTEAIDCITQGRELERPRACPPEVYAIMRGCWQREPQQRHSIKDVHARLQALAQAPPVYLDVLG
# assayProtocol: HTRF Assay: Isolated TRK Enzyme assays use the HTRF KinEASE-TK kit (Cisbio Cat#62TK0PEJ) with recombinant His-tagged cytoplasmic domains of each TRK receptor sourced from Invitrogen (see table below). […] A standard curve using the compound of Example 135 disclosed in WO2005/116035 of 150 uM is also prepared on each test plate. High percentage effect (HPE) is defined by 150 uM.
attributeMeasured: IC50 (nM)

{"columns": ["substanceSmiles", "IC50 [nM]"],
 "data": [
  ["CC(C)(CO)n1cc(C(=O)c2cc(NC(=O)Cn3cc(C(F)(F)F)nn3)ccn2)c2cnccc21", 79.3],
  ["CC(C)(CO)n1cc(C(=O)c2cncc(NC(=O)Cn3cc(C4CC4)nn3)c2)c2cnccc21", 12.4]
]}

(I) CC(C)(CO)n1cc(C(=O)c2cncc(NC(=O)Cc3ccc(C#N)cc3)c2)c2cnccc21
(II) CC(C)(CO)n1cc(C(=O)c2cncc(NC(=O)Cc3ccc(Cl)cc3)c2)c2cncc(F)c21
Which of the two gives a bigger number for IC50: I or II ? Write the label of whichever entry you select.
I
